Ref: paper PMC12212125

B1: Arabidopsis thaliana cryptochrome 2 (CRY2, UniProt Q96524), residues 1-535 fused after the Gal4 DNA-binding domain (Gal4BD-CRY2(535)); mutagenized window 321-412, Q96524 (parent)
chain: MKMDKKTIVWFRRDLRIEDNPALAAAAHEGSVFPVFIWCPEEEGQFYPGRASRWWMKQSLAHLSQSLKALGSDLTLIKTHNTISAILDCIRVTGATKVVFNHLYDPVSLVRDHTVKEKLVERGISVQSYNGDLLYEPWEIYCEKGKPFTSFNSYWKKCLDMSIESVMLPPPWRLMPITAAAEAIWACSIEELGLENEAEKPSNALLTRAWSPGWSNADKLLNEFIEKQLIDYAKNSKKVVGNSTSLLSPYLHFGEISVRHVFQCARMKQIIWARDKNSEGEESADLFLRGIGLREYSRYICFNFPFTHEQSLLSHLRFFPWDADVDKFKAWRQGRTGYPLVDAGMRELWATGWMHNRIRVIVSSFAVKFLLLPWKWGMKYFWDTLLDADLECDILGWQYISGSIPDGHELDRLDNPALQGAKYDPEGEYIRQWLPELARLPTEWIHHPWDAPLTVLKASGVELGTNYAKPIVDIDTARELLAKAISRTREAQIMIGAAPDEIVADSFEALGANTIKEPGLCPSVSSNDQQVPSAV

# Variants of: B1
# protocol-notes: yeast two-hybrid growth selection (MaV203; Gal4BD-CRY2(1-535) library x Gal4AD-CIB1; URA3 reporter on SC -Trp/-Leu/-Ura) in the dark, deep sequencing before and after selection, Enrich2 scoring; three independent screens (one at 48 h, two …)
# condition-summary: with CIB1 (CRYPTOCHROME-INTERACTING BASIC-HELIX-LOOP-HELIX 1), dark (no blue light), screens 1, 3 and 4, Svar > 0 = enriched under dark selection for CRY2-CIB1 two-hybrid growth (URA3 reporter), < 0 = depleted, relative to wild type (whose scores are 0). 'The Enrich2 software calculates, parent: 0, not an affinity, scale: Enrich2 score, numbering: uniprot, sequence starts at 1
# strict inequality: enrichment < 0.9 yields MET, everything else yields NOT MET

Take the variant K368D and say whether its enrichment is less than 0.9.
NOT MET

Take the variant P405L and say whether its enrichment is less than 0.9.
NOT MET

Take the variant W374G and say whether its enrichment is less than 0.9.
MET

Take the variant D387G and say whether its enrichment is less than 0.9.
MET

Take the variant Q333H and say whether its enrichment is less than 0.9.
MET

Take the variant F381V and say whether its enrichment is less than 0.9.
MET

Take the variant R335S and say whether its enrichment is less than 0.9.
MET

Take the variant D406V and say whether its enrichment is less than 0.9.
NOT MET

Take the variant K375S and say whether its enrichment is less than 0.9.
MET

Take the variant F328I and say whether its enrichment is less than 0.9.
MET

Take the variant R346I and say whether its enrichment is less than 0.9.
MET

Take the variant V360E and say whether its enrichment is less than 0.9.
MET

Take the variant G407D and say whether its enrichment is less than 0.9.
NOT MET

Take the variant Q398H and say whether its enrichment is less than 0.9.
NOT MET

Take the variant I394S and say whether its enrichment is less than 0.9.
MET

Take the variant L390F and say whether its enrichment is less than 0.9.
NOT MET

Take the variant W397C and say whether its enrichment is less than 0.9.
MET
